Provenance of the data: patent US20060004028A1

Some molecules, each annotated with its measured melting point.

{"molecule": "COc1ccc(C2NC(=O)c3cccc4c3N2CCC4NC(=O)C2CCN(C)CC2)cc1 (centres unmarked)", "result": "252.3 to 253.1 °C"}
{"molecule": "Cc1ccc(C2NC(=O)c3cccc4c3N2CCC4=O)cc1 (centres unmarked)", "result": "172.1 to 175.8 °C"}
{"molecule": "COc1ccc(C2NC(=O)c3cccc4c3N2CCNC4=O)cc1 (centres unmarked)", "result": "279.9 °C (dec.)"}
{"molecule": "COc1ccc(C2NC(=O)c3cccc4c3N2CCC4=O)cc1Br (centres unmarked)", "result": "212.8 to 215.7 °C"}
{"molecule": "O=C1CCN2c3c1cccc3C(=O)NC2c1ccccc1 (centres unmarked)", "result": "172.1 to 180.4 °C"}
{"molecule": "CC(C)Oc1ccc(C2NC(=O)c3cccc4c3N2CCC4=O)cc1 (centres unmarked)", "result": "175.8 to 177.1 °C"}
{"molecule": "COc1ccc(Cc2nc(=O)c3cccc4c3n2CCC4=O)cc1", "result": "81.4 to 82 °C"}
{"molecule": "COc1ccc(C2NC(=O)c3cccc4c3N2CCC4NC(=O)CCN2CCCCC2)cc1 (centres unmarked)", "result": "186 to 187.2 °C"}

melting point reading for CON=C1CCN2c3c(cccc31)C(=O)NC2c1ccc(-n2ccnc2)cc1 (centres unmarked) : 246.3 °C (dec.)

melting point reading for COc1cc(C2NC(=O)c3cccc4c3N2CCC4=NO)ccc1O (centres unmarked) : 174.4 to 189.3 °C

melting point reading for O=C1CCN2c3c1cccc3C(=O)NC2c1ccsc1 (centres unmarked) : 190.9 to 193.4 °C

melting point reading for COc1ccc(C2NC(=O)c3cccc4c3N2CCC4=O)cc1 (centres unmarked) : 137.4 to 144.2 °C

melting point reading for `COc1ccc([C@H]2NC(=O)c3cccc4c3N2CC[C@@H]4N)cc1` : 110 to 112.7 °C

melting point reading for N#Cc1ccc(C2NC(=O)c3cccc4c3N2CCC4=NO)cc1 (centres unmarked) : > 250 °C

melting point reading for N[C@H]1CCN2c3c(cccc31)C(=O)N[C@@H]2c1cccnc1 (racemic) : 127 to 131.2 °C

melting point reading for O=C1NC(c2ccc(F)c(F)c2)N2CCC(=NO)c3cccc1c32 (centres unmarked) : 218.4 to 222.3 °C

melting point reading for COc1ccc(C2NC(=O)c3cccc4c3N2CCC4=NO)cc1 (centres unmarked) : 200.8 to 211.9 °C

melting point reading for O=C1CCN2c3c1cccc3C(=O)NC2c1cccnc1 (centres unmarked) : 190 to 191.6 °C

melting point reading for CON=C1CCN2c3c(cccc31)C(=O)NC2c1ccc([N+](=O)[O-])cc1 (centres unmarked) : 112.9 to 116.4 °C

melting point reading for COc1ccc(C2NC(=O)c3cccc4c3N2CCC4N(C)C)cc1 (centres unmarked) : 188.2 to 192.4 °C

###

Some compounds, each annotated with its measured melting point.

{"compound": "COc1ccc2cc(C3NC(=O)c4cccc5c4N3CCC5=O)ccc2c1 (stereo not drawn) [Example 47]", "melting point": "191.4 to 195.5 °C"}
{"compound": "COc1cc(C2NC(=O)c3cccc4c3N2CCC4=NO)ccc1F (stereo not drawn) [Example 63]", "melting point": "245.4 to 246.6 °C"}
{"compound": "O=C1CCN2c3c1cccc3C(=O)NC2c1ccc(F)cc1 (stereo not drawn) [Example 19]", "melting point": "216 to 224.8 °C"}
{"compound": "CON=C1CCN2c3c(cccc31)C(=O)NC2c1ccc(C(F)(F)F)cc1 (stereo not drawn) [Example 62]", "melting point": "199.4 to 207.2 °C"}
{"compound": "O=C1NC(c2ccc([N+](=O)[O-])cc2)N2CCC(=NO)c3cccc1c32 (stereo not drawn) [Example 73]", "melting point": "220 to 224.7 °C"}
{"compound": "CON=C1CCN2c3c(cc(F)cc31)C(=O)NC2c1ccc(OC)cc1 (stereo not drawn) [Example 51]", "melting point": "200.1 to 202.9 °C"}
{"compound": "N#Cc1ccc(C2NC(=O)c3cccc4c3N2CCC4=O)cc1 (stereo not drawn) [Example 16]", "melting point": "134 to 146.9 °C"}
{"compound": "COc1ccc(C2NC(=O)c3cccc4c3N2CCC4NC(=O)c2ccc(N(C)C)cc2)cc1 (stereo not drawn) [Example 132]", "melting point": "201.4 to 202.9 °C"}
{"compound": "CON=C1CCN2c3c(cccc31)C(=O)NC2c1ccc(OC)c(Br)c1 (stereo not drawn) [Example 54]", "melting point": "218.7 to 221.7 °C"}
{"compound": "CN(C)CCCOc1ccc(C2NC(=O)c3cccc4c3N2CCC4=O)cc1 (stereo not drawn) [Example 26]", "melting point": "174.3 to 178.2 °C"}

melting point reading for NC1CCN2c3c(cccc31)C(=O)NC2c1ccc(C(=O)O)cc1 (stereo not drawn) [Example 127] : 232.3 to 238.7 °C

melting point reading for COc1ccc(C2NC(=O)c3cccc4c3N2CCC4)cc1 (stereo not drawn) [Example 103] : 143.3 to 154.6 °C

melting point reading for CON=C1CCN2c3c(cccc31)C(=O)NC2c1ccc(OC(C)C)cc1 (stereo not drawn) [Example 64] : 167.4 to 168.9 °C

melting point reading for COc1ccc(C2NC(=O)c3cc(F)cc4c3N2CCC4=O)cc1 (stereo not drawn) [Example 24] : 164.7 to 166 °C
